Listing: EC50 of selected compounds
studySystem: hTLR7 (Homo sapiens, UniProt Q9NYK1)
Sequence (Q9NYK1 27-1049): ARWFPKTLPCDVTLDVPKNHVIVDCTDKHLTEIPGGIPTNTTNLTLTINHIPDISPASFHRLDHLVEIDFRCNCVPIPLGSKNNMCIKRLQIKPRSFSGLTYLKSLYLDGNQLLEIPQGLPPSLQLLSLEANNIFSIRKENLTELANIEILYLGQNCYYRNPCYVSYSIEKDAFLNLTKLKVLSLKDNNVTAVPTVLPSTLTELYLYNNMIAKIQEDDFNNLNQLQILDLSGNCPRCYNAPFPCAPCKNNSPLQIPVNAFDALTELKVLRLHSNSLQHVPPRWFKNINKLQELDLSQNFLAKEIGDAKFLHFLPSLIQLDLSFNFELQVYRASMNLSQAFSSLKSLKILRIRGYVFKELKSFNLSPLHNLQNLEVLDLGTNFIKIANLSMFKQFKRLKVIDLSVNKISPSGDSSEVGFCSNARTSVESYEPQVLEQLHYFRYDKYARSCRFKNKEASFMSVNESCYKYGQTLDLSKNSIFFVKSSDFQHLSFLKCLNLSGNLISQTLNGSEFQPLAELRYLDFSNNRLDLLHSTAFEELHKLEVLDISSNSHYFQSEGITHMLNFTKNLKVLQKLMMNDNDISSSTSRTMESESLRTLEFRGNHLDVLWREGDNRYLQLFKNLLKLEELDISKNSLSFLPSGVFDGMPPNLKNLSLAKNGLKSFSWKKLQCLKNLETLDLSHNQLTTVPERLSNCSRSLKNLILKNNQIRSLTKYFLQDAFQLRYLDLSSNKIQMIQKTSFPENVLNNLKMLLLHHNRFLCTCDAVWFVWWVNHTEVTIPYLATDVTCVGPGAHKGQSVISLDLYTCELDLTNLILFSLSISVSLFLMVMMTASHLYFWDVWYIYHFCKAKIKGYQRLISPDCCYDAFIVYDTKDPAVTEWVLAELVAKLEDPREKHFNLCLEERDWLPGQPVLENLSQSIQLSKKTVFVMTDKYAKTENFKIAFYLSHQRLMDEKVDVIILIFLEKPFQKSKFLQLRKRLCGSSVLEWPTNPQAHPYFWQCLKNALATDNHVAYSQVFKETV
protocolNotes: Agonistic activity on human TLR7 in HEK-Blue hTLR7 cells (QUANTI-Blue)
cond: 24 h incubation, OD650, read-out: hTLR 7 EC50

C#CCCN(C)Cc1cn(C)c(=O)cc1-c1cnc2c(N[C@@](C)(CO)CCCC)nc(N)nc2c1 | > 100 µM

Give the measured EC50 for CCCC[C@](C)(CO)Nc1nc(N)nc2cc(-c3cc(=S)[nH]cc3CN(C)CCOC)cnc12
> 100 µM

Give the measured EC50 for CCCC[C@](C)(CO)Nc1nc(N)nc2cc(-c3cc(=O)[nH]cc3COC)cnc12
> 100 µM

Give the measured EC50 for CCCC[C@](C)(CO)Nc1nc(N)nc2cc(-c3cc(=O)[nH]cc3CN3CCCCC3)cnc12
65.8 µM
